Attribute: protein stability index
B1: DVL3 (parent)
chain: YNPHPGFPELGYSYGGGSASSQHS

Variants of: B1
Assay Name: protein stability index of a GFP-peptide fusion (GPS, HEK-293T) (PSI 1-6); higher = more stable;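 note: lentivirally expressed fusions sorted by FACS into six bins by GFP to DsRed ratio, PSI derived from sequencing read proportions per bin multiplied by bin number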
Experimental Conditions: c terminus: a fixed tail appended
Observable: protein stability index

Variant String	Number
S18A	2.94
G15K	2.91
H23M	3.04
A19Q	2.99
A19E	2.92
G6K	3.05
P3M	3.01
A19N	3.07
L10C	3.06
A19R	3.04
G16N	2.99
A19D	3.01
S18N	3

These measurements were taken from the supplement of paper PMC10567573.
